Test: rat PK study
Type: in vivo
Details: plasma; rat PK profile; read-out: rat Vss
observation-type: Vd (L/kg)
Field format: number, assumed L/kg, no unit text.

Entry under review: CS(=O)(=O)Nc1ccc(C(=O)NCc2ccc(Cl)cc2Cl)cc1 . Reported Vd?
0.787

====

Experiment: rat PK study
Type: in vivo
Details: Sprague-Dawley, plasma, intravenous; rat cassette PK study; read-out: rat CLp
observation-type: clearance (mL/min/kg)
Field format: number, assumed mL/min/kg, no unit text.

Entry under review: O=C(NCc1ccc(Br)cc1Cl)c1ccc(-c2ncn[nH]2)cc1 [Compound 14a] . Reported clearance?
20.5

====

Experiment: rat PK study
Assay type: in vivo
Conditions: Sprague-Dawley, plasma, intravenous; rat cassette PK study; read-out: rat t1/2 (converted)
observation-type: half-life (h)
Field format: number, assumed h, no unit text.

Entry under review: O=C(NCc1ccc(Br)cc1Cl)c1ccc(-c2ncn[nH]2)cc1 [Compound 14a] . Reported half-life?
1.1

====

Experiment: mouse PO PK study (C57BL/6)
Type: in vivo
Details: male, C57BL/6, mouse, CSF, po, 3 mg/kg, 3 mg/kg PO, 2 h, read-out: CSF level
observation-type: concentration at 2 h (nM)
Field format: number, assumed nM, no unit text.

Entry under review: O=C(NCc1ccc(OC(F)(F)F)cc1F)c1ccc2ncnn2c1 [Compound 19b] . Reported concentration at 2 h?
220

====

Target: hCav1.2 (Homo sapiens, UniProt Q13936)
Assay: Cav1.2 calcium flux assay
Settings: Ca2+ flux assay
pIC50: −log10 of the molar value.
observation-type: pIC50

Entry under review: O=C(NCc1ccc(OC(F)(F)F)cc1Cl)c1ccc2nncn2c1 [Compound 20] . Reported pIC50?
< 4.52

====

Molecular target: TREK-2 (Homo sapiens, UniProt P57789)
Sequence (P57789 whole entry): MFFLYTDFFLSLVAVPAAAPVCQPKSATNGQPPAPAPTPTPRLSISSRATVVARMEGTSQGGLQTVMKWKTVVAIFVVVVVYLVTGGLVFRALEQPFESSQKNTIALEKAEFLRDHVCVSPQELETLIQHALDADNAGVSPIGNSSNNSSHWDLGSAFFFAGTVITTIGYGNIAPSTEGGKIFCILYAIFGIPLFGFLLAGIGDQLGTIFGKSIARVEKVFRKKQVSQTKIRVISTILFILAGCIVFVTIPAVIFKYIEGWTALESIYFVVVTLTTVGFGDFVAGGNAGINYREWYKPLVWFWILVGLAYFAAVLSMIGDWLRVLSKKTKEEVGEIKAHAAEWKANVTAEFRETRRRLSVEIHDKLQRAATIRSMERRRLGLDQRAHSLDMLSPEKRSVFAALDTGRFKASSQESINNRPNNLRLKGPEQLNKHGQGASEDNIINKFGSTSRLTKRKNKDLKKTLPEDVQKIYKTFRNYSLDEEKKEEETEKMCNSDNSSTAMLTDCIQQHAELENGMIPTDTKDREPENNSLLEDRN
Test: TREK-2 thallium flux assay (hTREK-2/HEK)
Conditions: control compound, table footnote
observation-type: IC50
Returns: string containing the numeric result and its unit.

I'm curious: which IC50 was measured for c1ccc(-c2nnn[nH]2)c(Nc2cccc3c2CCCC3)c1 [BL-1249, reference compound] tested on TREK-2 (Homo sapiens, UniProt P57789)?
7.3 µM

====

Molecular target: mouse TREK-2 (Mus musculus)
Assay: mouse TREK-2 MPC assay
Format: cell-based
Details: mouse, manual patch clamp
For each entry below, report its Emax value.
Field format: number, assumed %, no unit text.

Entry under review: Cc1cc(OC(F)(F)F)ccc1CNC(=O)c1ccc2ncnn2c1 [Compound 19a] . Reported Emax?
105

Entry under review: Cc1cc(OC(F)(F)F)ccc1CNC(=O)c1ccc(-n2cncn2)nc1 [Compound 14c] . Reported Emax?
72

Entry under review: O=C(NCc1ccc(OC(F)(F)F)cc1F)c1ccc2ncnn2c1 [Compound 19b] . Reported Emax?
105

Entry under review: O=C(NCc1ccc(Br)cc1Cl)c1ccc(-c2ncn[nH]2)cc1 [Compound 14a] . Reported Emax?
97

====

Assay: mouse brain homogenate binding
Assay type: in vitro ADME
Details: read-out: mouse brain fu
observation-type: fraction unbound at 6 h, 1 µM
Reply with just the number.

Entry under review: O=C(NCc1ccc(OC(F)(F)F)cc1F)c1ccc2ncnn2c1 [Compound 19b] . Reported fraction unbound at 6 h, 1 µM?
0.28

====

Molecular target: UniProt:Q12809
Sequence (Q12809 whole entry): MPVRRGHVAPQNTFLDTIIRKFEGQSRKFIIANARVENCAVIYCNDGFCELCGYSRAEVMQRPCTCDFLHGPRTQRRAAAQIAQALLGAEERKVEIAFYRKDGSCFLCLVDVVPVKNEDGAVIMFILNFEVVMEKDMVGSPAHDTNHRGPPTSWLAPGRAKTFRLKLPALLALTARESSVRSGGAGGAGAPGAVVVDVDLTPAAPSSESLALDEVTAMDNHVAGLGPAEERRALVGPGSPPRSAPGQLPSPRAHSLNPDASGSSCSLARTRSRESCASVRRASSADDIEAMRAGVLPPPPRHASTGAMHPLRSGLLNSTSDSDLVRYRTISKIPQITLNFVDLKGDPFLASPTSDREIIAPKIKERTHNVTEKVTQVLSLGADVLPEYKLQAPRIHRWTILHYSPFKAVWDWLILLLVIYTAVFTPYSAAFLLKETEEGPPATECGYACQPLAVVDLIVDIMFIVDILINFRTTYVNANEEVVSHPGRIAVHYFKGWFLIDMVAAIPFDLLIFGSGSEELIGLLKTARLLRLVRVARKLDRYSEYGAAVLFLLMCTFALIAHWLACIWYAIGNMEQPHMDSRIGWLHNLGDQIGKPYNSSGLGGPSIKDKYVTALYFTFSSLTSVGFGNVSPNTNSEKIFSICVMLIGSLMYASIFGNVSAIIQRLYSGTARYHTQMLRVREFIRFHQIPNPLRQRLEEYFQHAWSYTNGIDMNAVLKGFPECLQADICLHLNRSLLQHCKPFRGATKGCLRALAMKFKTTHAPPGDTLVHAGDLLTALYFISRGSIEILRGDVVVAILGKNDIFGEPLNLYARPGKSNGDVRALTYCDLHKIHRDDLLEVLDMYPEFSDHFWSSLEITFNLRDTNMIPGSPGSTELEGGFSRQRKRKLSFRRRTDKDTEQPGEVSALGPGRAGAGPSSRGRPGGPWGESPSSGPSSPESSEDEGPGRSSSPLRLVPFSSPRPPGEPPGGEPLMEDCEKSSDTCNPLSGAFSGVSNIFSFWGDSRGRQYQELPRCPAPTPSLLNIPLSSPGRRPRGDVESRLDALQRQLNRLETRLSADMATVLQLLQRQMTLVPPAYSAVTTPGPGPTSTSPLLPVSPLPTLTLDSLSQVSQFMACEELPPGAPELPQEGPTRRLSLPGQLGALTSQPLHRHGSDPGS
Assay: Eurofins Lead Profiling radioligand binding
Conditions: title: 30 μM
observation-type: inhibition
Returns: string containing the numeric result and its unit.

Entry under review: O=C(NCc1ccc(OC(F)(F)F)cc1F)c1ccc2ncnn2c1 [Compound 19b] . Reported inhibition?
44%

====

Target: TREK-2 (Homo sapiens, UniProt P57789)
Test: human TREK-2 MPC assay
Assay type: cell-based
Set-up: expressed in transfected cells; host or cells: HEK293
observation-type: EC50 (nM)
Field format: number, assumed nM, no unit text.

Entry under review: O=C(NCc1ccc(OC(F)(F)F)cc1Cl)c1ccc2nncn2c1 [Compound 20] . Reported EC50?
190

====

Experiment: rat PK study
Type: in vivo
Conditions: Sprague-Dawley, plasma, intravenous; rat cassette PK study; read-out: rat Vss
observation-type: Vd (L/kg)
Field format: number, assumed L/kg, no unit text.

Entry under review: O=C(NCc1ccc(Br)cc1Cl)c1ccc(-c2ncn[nH]2)cc1 [Compound 14a] . Reported Vd?
1.5

====

Assay: rat PO PK study
Type: in vivo
Settings: male, Sprague-Dawley, plasma, 3 mg/kg PO
observation-type: Cmax (µM)
Field format: number, assumed µM, no unit text.

Entry under review: O=C(NCc1ccc(OC(F)(F)F)cc1F)c1ccc2ncnn2c1 [Compound 19b] . Reported Cmax?
10.3

====

Assay: dog IV PK study
Assay type: in vivo
Conditions: male, beagle, plasma, 0.1 mg/kg IV, HP-β-CD solution, read-out: CLp
observation-type: clearance (mL/min/kg)
Field format: number, assumed mL/min/kg, no unit text.

Entry under review: O=C(NCc1ccc(OC(F)(F)F)cc1F)c1ccc2ncnn2c1 [Compound 19b] . Reported clearance?
1.3

====

Experiment: rat PK study
Type: in vivo
Settings: plasma; rat PK profile; read-out: rat CLp
observation-type: clearance

Entry under review: CS(=O)(=O)Nc1ccc(C(=O)NCc2ccc(Cl)cc2Cl)cc1 . Reported clearance?
3.5 mL/min/kg

====

Assay: rat plasma:brain level study (Kp, Kp,uu)
Type: in vivo
Details: male, Sprague-Dawley, brain and plasma, intravenous, 0.2 mg/kg; rat cassette PK study
observation-type: Kp at 15 min

Entry under review: O=C(NCc1ccc(Br)cc1Cl)c1ccc(-c2ncn[nH]2)cc1 [Compound 14a] . Reported Kp at 15 min?
0.2

====

Assay: rat PO PK study
Type: in vivo
Details: male, Sprague-Dawley, plasma, 3 mg/kg PO
observation-type: half-life

Entry under review: O=C(NCc1ccc(OC(F)(F)F)cc1F)c1ccc2ncnn2c1 [Compound 19b] . Reported half-life?
> 24 h

====

Test: mouse PO PK study (C57BL/6)
Assay type: in vivo
Settings: male, plasma, C57BL/6 mice, 3 mg/kg PO
observation-type: Tmax
Returns: string containing the numeric result and its unit.

Entry under review: O=C(NCc1ccc(OC(F)(F)F)cc1F)c1ccc2ncnn2c1 [Compound 19b] . Reported Tmax?
3.8 h

====

Biological target: mouse TREK-1 (Mus musculus, UniProt P97438)
Sequence (P97438 whole entry): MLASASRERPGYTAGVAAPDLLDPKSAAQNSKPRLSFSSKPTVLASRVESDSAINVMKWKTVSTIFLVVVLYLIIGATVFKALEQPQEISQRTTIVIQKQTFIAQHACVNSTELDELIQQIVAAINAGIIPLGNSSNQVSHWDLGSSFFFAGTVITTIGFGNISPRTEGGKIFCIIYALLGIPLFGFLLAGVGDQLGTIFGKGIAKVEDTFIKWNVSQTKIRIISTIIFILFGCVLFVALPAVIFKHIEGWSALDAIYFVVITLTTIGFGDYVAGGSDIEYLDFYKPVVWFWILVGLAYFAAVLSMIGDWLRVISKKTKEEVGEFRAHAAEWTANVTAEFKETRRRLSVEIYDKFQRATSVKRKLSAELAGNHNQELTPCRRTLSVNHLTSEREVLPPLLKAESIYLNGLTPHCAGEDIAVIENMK
Assay: mouse TREK-1 MPC assay
Assay type: cell-based
Conditions: manual patch clamp
observation-type: Emax (%)
Field format: number, assumed %, no unit text.

Entry under review: Cc1cc(OC(F)(F)F)ccc1CNC(=O)c1ccc2ncnn2c1 [Compound 19a] . Reported Emax?
106

Entry under review: O=C(NCc1ccc(OC(F)(F)F)cc1F)c1ccc2ncnn2c1 [Compound 19b] . Reported Emax?
109

Entry under review: O=C(NCc1ccc(Br)cc1Cl)c1ccc(-c2ncn[nH]2)cc1 [Compound 14a] . Reported Emax?
94

Entry under review: Cc1cc(OC(F)(F)F)ccc1CNC(=O)c1ccc(-n2cncn2)nc1 [Compound 14c] . Reported Emax?
31

====

Experiment: mouse PO PK study (C57BL/6)
Assay type: in vivo
Settings: male, plasma, C57BL/6 mice, 3 mg/kg PO
Experimental: Plasma and brain tissue samples originating from in vivo studies were analyzed by electrospray ionization using an AB Sciex Q-TRAP 5500 (Foster City, CA) that was coupled to a Shimadzu LC-20AD pump (Columbia, MD) and a Leap Technologies CTC PAL auto-sampler (Carrboro, NC). […] min, with an isocratic hold for 0.5 min, before transitioning to 10% B over 0.05 min. […] All data were analyzed using AB Sciex Analyst 1.5.1 software. […]
observation-type: half-life (h)
Field format: number, assumed h, no unit text.

Entry under review: O=C(NCc1ccc(OC(F)(F)F)cc1F)c1ccc2ncnn2c1 [Compound 19b] . Reported half-life?
19

====

Target: TREK-1 (Homo sapiens, UniProt O95069)
Sequence (O95069 whole entry, species assumed): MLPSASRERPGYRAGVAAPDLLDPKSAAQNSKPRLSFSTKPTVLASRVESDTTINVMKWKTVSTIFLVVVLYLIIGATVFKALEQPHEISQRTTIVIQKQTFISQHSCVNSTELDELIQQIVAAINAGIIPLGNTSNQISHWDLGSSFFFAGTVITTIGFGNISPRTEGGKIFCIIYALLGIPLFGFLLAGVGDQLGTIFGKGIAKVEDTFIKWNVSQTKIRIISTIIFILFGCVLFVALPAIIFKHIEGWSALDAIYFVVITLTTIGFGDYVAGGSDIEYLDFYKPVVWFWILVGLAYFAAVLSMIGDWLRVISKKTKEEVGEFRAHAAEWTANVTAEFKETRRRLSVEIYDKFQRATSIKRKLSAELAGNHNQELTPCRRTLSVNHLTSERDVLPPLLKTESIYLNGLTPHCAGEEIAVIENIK
Experiment: TREK-1 activation, BL-1249 series (assay not given)
Type: cell-based
Conditions: assay format not stated
observation-type: EC50 (µM)
Field format: number, assumed µM, no unit text.

Entry under review: O=c1[nH]c(-c2ccc(F)cc2Nc2cccc(C(F)(F)F)c2)no1 [Compound 11] . Reported EC50?
3.6

====

Assay: rat plasma:brain level study (Kp, Kp,uu)
Format: in vivo
Settings: male, Sprague-Dawley, brain and plasma; rat; dosing not given
observation-type: Kp uu

Entry under review: O=C(NCc1ccc(OC(F)(F)F)cc1Cl)c1ccc2nncn2c1 [Compound 20] . Reported Kp uu?
0.078

====

Molecular target: mouse TREK-2 (Mus musculus, UniProt Q8BUW1)
Sequence (Q8BUW1 whole entry): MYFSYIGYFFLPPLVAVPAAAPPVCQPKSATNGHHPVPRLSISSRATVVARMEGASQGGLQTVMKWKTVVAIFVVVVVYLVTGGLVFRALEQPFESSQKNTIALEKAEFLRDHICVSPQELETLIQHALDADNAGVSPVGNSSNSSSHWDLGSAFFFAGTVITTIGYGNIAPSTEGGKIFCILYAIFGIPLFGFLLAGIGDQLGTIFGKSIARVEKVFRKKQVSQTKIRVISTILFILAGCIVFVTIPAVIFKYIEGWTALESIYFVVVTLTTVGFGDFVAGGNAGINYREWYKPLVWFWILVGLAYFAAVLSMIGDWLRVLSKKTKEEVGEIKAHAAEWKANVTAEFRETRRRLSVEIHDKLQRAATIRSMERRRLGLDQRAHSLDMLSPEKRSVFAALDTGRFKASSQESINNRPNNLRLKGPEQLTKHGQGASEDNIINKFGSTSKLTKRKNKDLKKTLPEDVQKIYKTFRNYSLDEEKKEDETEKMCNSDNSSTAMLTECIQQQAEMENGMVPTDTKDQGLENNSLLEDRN
Assay: mouse TREK-2 MPC assay
Details: mouse, manual patch clamp
observation-type: pEC50
A value of pEC50 is the negative decimal logarithm of a concentration given in moles per litre.

Entry under review: O=C(NCc1ccc(Br)cc1Cl)c1ccc(-c2ncn[nH]2)cc1 [Compound 14a] . Reported pEC50?
6.21

Entry under review: O=C(NCc1ccc(OC(F)(F)F)cc1F)c1ccc2ncnn2c1 [Compound 19b] . Reported pEC50?
6.24

Entry under review: Cc1cc(OC(F)(F)F)ccc1CNC(=O)c1ccc(-n2cncn2)nc1 [Compound 14c] . Reported pEC50?
6.51

Entry under review: Cc1cc(OC(F)(F)F)ccc1CNC(=O)c1ccc2ncnn2c1 [Compound 19a] . Reported pEC50?
6.82
